- Test system: CAKI-1
- assay: NCI tumour cell line growth inhibition, 48 h
The source made the active and inactive calls. Cut-off read from the data, not from the text of the source: active = GI50 up to about 1.1 µM and inactive = higher.
Pick one and only one: label 1 (active), label 0 (inactive)

compound	assayTarget	group
O=C(Nc1ccc(Sc2ccc(/N=N/c3c(O)c(S(=O)(=O)O)cc4cc(S(=O)(=O)O)ccc34)cc2)cc1)c1ccc(/N=N/c2c(O)c(S(=O)(=O)O)cc3cc(S(=O)(=O)O)ccc23)cc1	CAKI-1	label 0
CCN(CC)CCNc1ccc(CO)c2sc3ccccc3c(=O)c12	CAKI-1	label 0
O=C(N/N=C(COc1ccc([N+](=O)[O-])cc1)\N=C\c1ccncc1)c1ccncc1	CAKI-1	label 0

Exercise: Which outcome was entered for the compound CCS(=O)(=O)CCn1c(=O)c2c(ncn2C)n(C)c1=O in this test?
Key: label 0

Exercise: Which outcome was entered for the compound Cn1c(=O)cc(/N=N\c2ccc(Cl)c(Cl)c2)[nH]c1=O in this test?
Key: label 0

----------
Assignment: determine reported GI50 for the given compounds.
- Test system: EKVX
- assay: NCI tumour cell line growth inhibition, 48 h
The source made the active and inactive calls. Rule as the data show it: active = GI50 up to about 1.1 µM and inactive = higher.

In [3]: df
Out[3]:
                                   compound  valuetype           measurement
0  CC1c2ccccc2Cn2cc3c(c21)C(=O)c1cccc(OP(=O)(O)OCc2ccccc2)c1C3=O (configuration not stated)       GI50  > 66.1 µM (inactive)
1                        NCCNc1cccc2ccccc12       GI50   > 100 µM (inactive)
2             N#Cc1[nH]c(=O)n(-c2ccccc2)c1N       GI50    > 10 µM (inactive)
3                      CC(=O)O/C=C\OC1CCCC1       GI50   > 100 µM (inactive)
4  CCOC(=O)NC(=O)c1cn(CCCOC(=O)CCCCCCCCC(=O)OCCCn2cc(C(=O)NC(=O)OCC)c(=O)n(C)c2=O)c(=O)n(C)c1=O       GI50   > 100 µM (inactive)
5  COC(=O)CC[N+]1=CCC(c2ccccc2)(c2ccccc2)O1       GI50   > 100 µM (inactive)

Shifting focus to the compound that follows.
Exercise: Entry O=C1Nc2c(Cl)cc(Cl)cc2/C1=N/N=C/c1ccccc1O , system EKVX: what GI50 was measured?
Key: 11.5 µM (inactive)

----------
- Tested on: TK-10
- assay: NCI tumour cell line growth inhibition, 48 h
The source made the active and inactive calls. Cut-off read from the data, not from the text of the source: active = GI50 up to about 1.1 µM and inactive = higher.
valueType: GI50

Example entries begin here.
In [3]: df
Out[3]:
                                   compound  assaytarget           measurement
0  CCCC/C=C1\CCC(CN2CCCC2)C1=O (stereo not drawn)        TK-10    2.59 µM (inactive)
1  CCOC(=O)NC(=O)c1cn(CCCOC(=O)CCCCCCCCC(=O)OCCCn2cc(C(=O)NC(=O)OCC)c(=O)n(C)c2=O)c(=O)n(C)c1=O        TK-10  > 86.5 µM (inactive)

Provide each entry's GI50 from the list below.
1. O=C(Cc1nc2ccc([N+](=O)[O-])cc2nc1O)C(=O)Nc1cc(Cl)c(Cl)cc1Cl
2. O=C(Nc1nc2ccccc2s1)c1cc([N+](=O)[O-])ccc1Cl
3. N#Cc1ccc(Nc2cnc3cc(N)ccc3n2)cc1
4. Cn1c(=O)c2nc(CCCCC(=O)O)[nH]c2n(C)c1=O
5. CSc1nsc(-c2ccccc2)[s+]1.[O-][Cl+3]([O-])([O-])[O-]
6. CC(NC(=O)C(N)Cc1ccc(O)cn1)C(=O)O (stereo not drawn)

Key:
> 100 µM (inactive)
66.4 µM (inactive)
> 100 µM (inactive)
> 100 µM (inactive)
> 100 µM (inactive)
> 100 µM (inactive)

Provide each entry's GI50 from the list below.
1. CO/N=C(/C(=O)OC)c1ccccc1COc1cccc(C(F)(F)F)c1
2. CN1CN(c2ccccc2)C2(CCN(C3Nc4ccccc4O3)CC2)C1=O (stereo not drawn)
3. Cc1cc(S(=O)(=O)Nc2nc(Nc3ccc(Cl)cc3)n[nH]2)c(S)cc1Cl
4. Nc1nc(-c2cccnc2)cc(-c2cc(-c3cccnc3)nc(N)n2)n1

Key:
11.4 µM (inactive)
11.1 µM (inactive)
> 100 µM (inactive)
> 100 µM (inactive)

Provide each entry's GI50 from the list below.
1. COC(=O)CC1(O)C(=O)OCc2c1cc1n(c2=O)Cc2c-1nc1ccccc1c2OC (stereo not drawn)
2. O=C(O)CNC(=O)C(CSC(=O)OCC1c2ccccc2-c2ccccc21)NC(=O)CCC(NC(=O)OCC1c2ccccc2-c2ccccc21)C(=O)O (stereo not drawn)
3. COc1cc(C[S+]([O-])c2ccc(O)cc2)cc(OC)c1OC (stereo not drawn)
4. COC(=O)CCc1cc(OC)c2c(c1)[C@H](C(=O)OC)[C@@H](c1ccc(O)c(OC)c1)O2
5. Cc1nc2ccccc2c(=O)n1NC(=O)c1ccccn1

Key:
["> 43.6 µM (inactive)", "22.2 µM (inactive)", "> 100 µM (inactive)", "> 100 µM (inactive)", "> 100 µM (inactive)"]

Provide each entry's GI50 from the list below.
1. CCOC(=O)Nc1cc2c(c(N)n1)N=C(c1ccc3ccccc3c1)CN2
2. COc1cc(OC)c2c(=O)c(OC)c(-c3ccc4c(c3)OCO4)oc2c1
3. Cc1cc2c(c(C(N)=O)c1C)-c1cc(Cl)cc(Cl)c1C2=O

Key:
1. 4.36 µM (inactive)
2. 45 µM (inactive)
3. > 100 µM (inactive)

Provide each entry's GI50 from the list below.
1. COCn1c(=O)n(C)c(=O)c2c1nc1c(c(=O)n(C)c(=O)n1COC)[n+]2[O-]
2. Nc1nc[n+](Cc2ccccc2CCO)c2[nH]cnc12
3. CCOC(=O)C(Cc1ccc(OC(=O)c2ccc(OC)cc2OC)cc1)NC(=O)C(F)(F)F (stereo not drawn)

Key:
1. 8.69 µM (inactive)
2. > 100 µM (inactive)
3. 22.2 µM (inactive)
